Target: OGA (Homo sapiens)
Construct: endogenous in cells; host or cells: HEK293 cells inducible for P301L mutant human Tau (isoform 2N4R)
Experiment: OGA cellular assay (ICC detection of O-GlcNAcylated proteins in HEK293 cells inducible for P301L mutant human Tau)
Assay type: cell-based
Conditions: HEK293, HEK293 cells inducible for P301L mutant human Tau; maximum defined by Thiamet G at 200 uM
Would you mind telling me the reported Emax of each entry?
I only need the number, in %, no unit after it.

The measured Emax that Cc1cc(C[C@H]2CCN([C@@H](C)c3ccc4c(c3)OCC4)C2)cc(C)n1 (single isomer, unassigned) showed for OGA (Homo sapiens) is 74

The measured Emax that Cc1cc(OC[C@@H]2CCN(C(C)c3nc4c(cc3F)OCCO4)C2)cc(C)n1 (stereo partly shown) showed for OGA (Homo sapiens) is 58

The measured Emax that COc1cc(C[C@H]2CCN(C(C)c3nc4c(cc3F)CCO4)C2)cc(C)n1 (single isomer, unassigned) [Product 84] showed for OGA (Homo sapiens) is 100

The measured Emax that Cc1cc(C[C@H]2CCN(C(C)c3ccc4c(n3)OCCO4)C2)cc(C(F)(F)F)n1 (stereo partly shown) showed for OGA (Homo sapiens) is 45

The measured Emax that Cc1cc(CC2(C)CCN(C(C)c3ccc4c(n3)OCCO4)C2)cc(C)n1 (stereo not shown) showed for OGA (Homo sapiens) is 17

The measured Emax that Cc1cc(C[C@H]2CCN(C(C)c3ccc4c(c3)OCC4)C2)cc(C(F)(F)F)n1 (stereo partly shown) showed for OGA (Homo sapiens) is 47

The measured Emax that Cc1cc(C[C@@H]2CCN([C@@H](C)c3cc4c(cc3F)OCCO4)C2)cc(C)n1 showed for OGA (Homo sapiens) is 72

The measured Emax that COc1cc(C[C@H]2CN(C(C)c3ccc4c(n3)OCCO4)C[C@@H]2C)cc(C)n1 (mixture of isomers) showed for OGA (Homo sapiens) is 36

The measured Emax that Cc1cc(O[C@@H]2CCN(C(C)c3ccc4c(n3)OCCO4)C2)cc(C)n1 (mixture of isomers) showed for OGA (Homo sapiens) is 33

The measured Emax that Cc1cc(C[C@H]2CCN([C@@H](C)c3cc4c(cc3F)OCCO4)C2)cc(C)n1 showed for OGA (Homo sapiens) is 72

The measured Emax that COc1cc(C[C@@H]2CCN(C(C)c3nc4c(cc3F)OCCO4)C2)cc(C)n1 (mixture of isomers) showed for OGA (Homo sapiens) is 90

The measured Emax that Cc1ncc(O[C@@H]2CCN(C(C)c3nc4c(cc3F)OCCO4)C2)nc1C (stereo partly shown) showed for OGA (Homo sapiens) is 73

The measured Emax that COc1cc(C[C@H]2CCN(C(C)c3nc4c(cc3F)OCCO4)C2)cc(C)n1 (stereo partly shown) showed for OGA (Homo sapiens) is 89

The measured Emax that CC(c1nc2c(cc1F)OCCO2)N1CC[C@@H](Oc2ccc(C(F)(F)F)nc2)C1 (stereo partly shown) showed for OGA (Homo sapiens) is 26

The measured Emax that COc1cc(C[C@H]2CCN([C@@H](C)c3cc4c(cc3F)NCCO4)C2)cc(C)n1 (racemic) showed for OGA (Homo sapiens) is 81

The measured Emax that Cc1cc(C[C@@H]2CCN(C(C)c3cnc4c(c3)OCCN4)C2)cc(C)n1 (mixture of isomers) showed for OGA (Homo sapiens) is 49
